growth values, listed per item
# System: MDA-MB-435 melanoma
# test details: NCI-60 one-dose screen, 48 h (100 = growth as untreated, 0 = no growth, -100 = all killed)
# conditions used: 10 µM unless noted
This is part of a sample that, as a whole, favours compounds with a hit. Of some 83,000 tested, about 20% had one in any assay. The source made the active and inactive calls. How the source made its calls: active means growth percent below 10; inactive means the rest.

[
  {
    "compound": "FC(F)(F)c1cc(NC2=NCCN=C(Nc3cc(C(F)(F)F)cc(C(F)(F)F)c3)SS2)cc(C(F)(F)F)c1",
    "growth": "65.1% (inactive)"
  }
]

Query: Requested field: growth. Item: "CC(=O)N(C)N=Nc1ccc(C)cc1"
Reply: 103% (inactive)

Query: Returns the measured growth for the input compound. Input: CCC12OC(COc3ccccc3)CN1CCN2c1ccccc1 (configuration not stated)
Reply: 98.6% [100 µM] (inactive)

Query: Data request, read-out growth, for "CCC(/C=C\C(C)=O)CC"
Reply: 100% (inactive)

Query: Quick check: growth of "Cn1c2ccccc2c2nnc(NCCCCO)nc21" ?
Reply: 110% (inactive)

Query: Please give the measured growth for this compound: "Cc1cc(Cl)cc(Cc2cc(Cl)cc(C)c2O)c1O"
Reply: -10.5% (active)

Query: Endpoint output: growth of O=C1NC(=O)C(c2ccccc2)O1 (configuration not stated) . Value?
Reply: 104% (inactive)
